A collection of molecules and their measured Glass transition temperature
# measurement.setup: Glass; DTA
recorded.metric: Glass transition temperature (°C)

>>> recorded_value("CCCCn1cc[n+](C)c1.N#C[S-] [1-butyl-3-methylimidazolium thiocyanate]")
-89.0
>>> recorded_value("CCCCn1cc[n+](C)c1.[I-] [1-butyl-3-methylimidazolium iodide]")
-62.0
>>> recorded_value("CCCCn1cc[n+](C)c1.F[B-](F)(F)F [1-butyl-3-methylimidazolium tetrafluoroborate]")
-85.0
>>> recorded_value("CCOS(=O)(=O)[O-].CCn1cc[n+](C)c1 [1-ethyl-3-methylimidazolium ethyl sulfate]")
-86.0
